Provenance of the data: PubChem BioAssay

Listing of entries alongside the reported inhibition.
Assay: TLR3 IRF3 reporter activation blockers – cell-based, poly I:C stimulus, luciferase, 10K MLSCN set, primary screen (AID 602277)
Details: HEK293-TLR3 RL24 IRF3 luciferase reporter, at 10 µM, active compounds read high
Report only the number, with the unit % understood.

The following compounds have reported results that may help.
COMPOUND	inhibition, %
CCOC(=O)Cn1c(=N)n(CCOc2cccc(C)c2)c2ccccc21	19.4
O=C(CN1C(=O)CC(c2ccco2)Sc2ccccc21)Nc1ccccc1F (centres undefined)	15.3
CCc1nnc(SCc2cn3c(C)cc(C)nc3n2)n1N	4.52
O=C(CSc1nnc2ncccn12)N1CCCCCC1	99.3
O=C(CSc1oc(-c2ccco2)nc1S(=O)(=O)c1ccccc1)NCC1CCCO1 (centres undefined)	20.2
N#CC(C(=O)NCCc1ccccc1)c1nc2ccccc2nc1N1CCOCC1 (centres undefined)	-40.4

Problem: Look up inhibition: `COc1cc(NS(=O)(=O)N2CCCC2)cc(OC)c1OC`
Result: 16.9

Problem: Please do the same for `N#CC1=C(N)SC(N)=C(C#N)C1c1ccc(C(F)(F)F)cc1` as well.
Result: -49.4
